The measured values listed here are drawn from the OligoGym collection.

# Assay system: C9orf100; further: reference of the scale not given here
# Test: pooled miR-30 sensor sort-seq; sequence = guide strand
# Condition details: shRNA
Measurement kind: sensor-assay potency score (higher = more potent)
Numbers only.

# Construct sequence, Recorded measurement
records = [
    ("TGAAGCCGTACAAACCTCCGGA", 0.131),
    ("TTGGTTATAGAGCTCCAAGTGG", -0.209),
    ("TAAGCAGTAGCTTCTCATGAGG", -1.31),
    ("TCGGTCTCTAGCAGCTCCCGGG", -1.38),
    ("TCAGACTGTGGTACCAGCGTGA", 0.191),
    ("TATTTTTCTTTAGCTGCTCCTG", -0.997),
]

// next entry
Prompt: sensor-assay potency score (higher = more potent) of TTGATGGTCAGGGCTGTTGGGA on C9orf100?
Completion: -1.1
